All figures here come from paper PMC7979765.

# METHOD DESCRIPTION: Multiplexed cytotoxicity assay (nuclei, ROS, TMRE)
# Assay type: cell-based, human
# EXPERIMENTAL CONTEXT: human, human primary hepatocytes, 1.01E-02 μM; read-out: Mean ROS (fold induction)
ASSAY METRIC: fold induction at 24 h, 0.0101 μM
The reply should be a number, written without any unit.

Q: Given the compound O=C(Nc1nnc(-c2ccc(F)cc2)o1)N1CCc2ccccc2C1 [MBX-4132] , what is its reported fold induction at 24 h, 0.0101 μM?
Result: 1.4

====

# Tested on: trans-translation
# METHOD DESCRIPTION: microbe, parasite or virus in culture
# Assay type: cell-based, Escherichia coli
# EXPERIMENTAL CONTEXT: Escherichia coli, Eco Luc reporter, one value per replicate; read-out: IC50
ASSAY METRIC: pIC50
pIC50 here: minus log base 10 of the concentration, concentration in moles per litre.

Q: Given the molecule `O=C(Nc1nnc(-c2ccc(F)cc2)o1)c1ccc(Cl)cc1` , what is its reported pIC50?
Result: 6.81
